ASSAY_OVERVIEW: Half life in F344 rat at 1 mg/kg, iv administered as single dose by LC-MS/MS method
Assay type: ADME, organism-based
Parameters: dose 1 mg/kg, route intravenous
SETTINGS: in vivo
METRIC_NAME: half-life (h)
Report the value in h with no unit label.

Task: Please report the recorded half-life for C[C@H]1O[C@@H](O[C@H]2[C@H](O)[C@@H](O)[C@@H](O[C@H]3[C@H](O)CN[C@@H]3CO)O[C@@H]2CO)[C@H](O)[C@@H](O)[C@@H]1O .
Result: 18.4

====

ASSAY_OVERVIEW: Tmax in F344 rat at 0.3 mg/kg, po administered as single dose by LC-MS/MS method
Assay type: ADME, organism-based
Parameters: dose 0.3 mg/kg, route oral
SETTINGS: in vivo
METRIC_NAME: Tmax (min)
# number only, unit min dropped from output

Task: Give its Tmax value. Item: C[C@H]1O[C@@H](O[C@H]2[C@H](O)[C@@H](O)[C@@H](O[C@H]3[C@H](O)CN[C@@H]3CO)O[C@@H]2CO)[C@H](O)[C@@H](O)[C@@H]1O
Result: 30

====

ASSAY_OVERVIEW: Cmax in F344 rat at 3 mg/kg, po administered as single dose by LC-MS/MS method
Format: ADME, organism-based
Parameters: dose 3 mg/kg, route oral
SETTINGS: in vivo
METRIC_NAME: Cmax (ng/mL)
// note: answer is a bare numeric in ng/mL

Task: What value of Cmax has been reported for the following compound? C[C@H]1O[C@@H](O[C@H]2[C@H](O)[C@@H](O)[C@@H](O[C@H]3[C@H](O)CN[C@@H]3CO)O[C@@H]2CO)[C@H](O)[C@@H](O)[C@@H]1O
Result: 113

====

ASSAY_OVERVIEW: AUClast in cynomolgus monkey at 1 mg/kg, iv administered as single dose by LC-MS/MS method
Assay type: ADME, organism-based, Macaca fascicularis
Set-up: time 0 - last, dose 1 mg/kg, route intravenous
SETTINGS: plasma
METRIC_NAME: AUC(0-t) (ng·h/mL)
Value expressed in ng·h/mL; do not type the unit.

Task: Can you share its AUC(0-t)? I mean this molecule: C[C@H]1O[C@@H](O[C@H]2[C@H](O)[C@@H](O)[C@@H](O[C@H]3[C@H](O)CN[C@@H]3CO)O[C@@H]2CO)[C@H](O)[C@@H](O)[C@@H]1O
Result: 5870

====

ASSAY_OVERVIEW: AUC (0 to infinity) in cynomolgus monkey at 3 mg/kg, po administered as single dose by LC-MS/MS method
Format: ADME, organism-based, Macaca fascicularis
Design: dose 3 mg/kg, route oral, time infinity
SETTINGS: plasma
METRIC_NAME: AUC(0-inf) (ng·h/mL)
Unit ng·h/mL implied. Number only.

Task: Which value of AUC(0-inf) has been reported for C[C@H]1O[C@@H](O[C@H]2[C@H](O)[C@@H](O)[C@@H](O[C@H]3[C@H](O)CN[C@@H]3CO)O[C@@H]2CO)[C@H](O)[C@@H](O)[C@@H]1O in the records?
Result: 191

====

ASSAY_OVERVIEW: Clearance in F344 rat at 3 mg/kg, iv administered as single dose by LC-MS/MS method
Type: ADME, organism-based
Design: dose 3 mg/kg, route intravenous
SETTINGS: in vivo
METRIC_NAME: clearance (mL/min/kg)
Please respond with the number in mL/min/kg and leave the unit unwritten.

Task: Find the recorded clearance belonging to C[C@H]1O[C@@H](O[C@H]2[C@H](O)[C@@H](O)[C@@H](O[C@H]3[C@H](O)CN[C@@H]3CO)O[C@@H]2CO)[C@H](O)[C@@H](O)[C@@H]1O and report it.
Result: 2.67

Values were extracted from ChEMBL document CHEMBL3526127.
